Reported pIC50 values for the following compounds.
# ASSAYED SYSTEM: UniProt:Q92769
# Sequence (Q92769 whole entry): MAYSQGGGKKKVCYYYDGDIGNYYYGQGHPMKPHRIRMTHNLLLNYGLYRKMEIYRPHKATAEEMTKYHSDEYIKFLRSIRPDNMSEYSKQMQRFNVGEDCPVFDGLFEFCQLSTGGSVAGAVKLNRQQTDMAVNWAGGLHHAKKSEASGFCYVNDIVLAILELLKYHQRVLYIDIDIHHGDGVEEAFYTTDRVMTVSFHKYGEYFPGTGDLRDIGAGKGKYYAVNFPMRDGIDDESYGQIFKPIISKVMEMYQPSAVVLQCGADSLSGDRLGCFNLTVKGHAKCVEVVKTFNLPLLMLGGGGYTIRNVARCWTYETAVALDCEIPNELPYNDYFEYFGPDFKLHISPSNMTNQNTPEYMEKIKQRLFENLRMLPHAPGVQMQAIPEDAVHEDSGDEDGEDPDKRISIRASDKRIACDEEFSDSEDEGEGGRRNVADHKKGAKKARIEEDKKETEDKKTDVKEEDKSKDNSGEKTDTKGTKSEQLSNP
# ASSAY OVERVIEW: Inhibition of human recombinant HDAC2 using Boc-L-Lys (Ac)-AMC as substrate preincubated with compound for 5 mins measured after 35 mins by spectrofluorometric analysis
pIC50: −log10 of the molar value.
VALUE KIND: pIC50

MOLECULE SMILES: Nc1ccc(-c2ccccc2)cc1NC(=O)c1ccccc1
VALUE KIND: pIC50
NUMBER: 5.92

MOLECULE SMILES: [N-]=[N+]=NCCOc1ccc(C(=O)Nc2cc(-c3ccccc3)ccc2N)cc1N=[N+]=[N-]
VALUE KIND: pIC50
NUMBER: 4.47

MOLECULE SMILES: [N-]=[N+]=NCCOc1ccc(C(=O)Nc2cc(-c3cccs3)ccc2N)cc1N=[N+]=[N-]
VALUE KIND: pIC50
NUMBER: 4.77

MOLECULE SMILES: [N-]=[N+]=Nc1cccc(COC(=O)NCc2ccc(C(=O)Nc3cc(-c4ccccc4)ccc3N)cc2)c1
VALUE KIND: pIC50
NUMBER: 5.42
